Biological target: human Fc (human)
Assay: ELISA; negative control
RECORDED METRIC: optical density (OD)
Express your answer in OD, writing the number without its unit.

368_F12 (antibody, V domains shown) VH: EVQLLESGGGLVQPGGSLRLSCAASGFTFDDYSMNWVRQAPGKGLEWVASINYNSGYKSYADSVKGRFTISRDNSKNTLYLQMNSLRAEDTAVYYCARSATWHDTHLDYWGQGTLVTVSS VL: DIQMTQSPSSLSASVGDRVTITCRASQSIVTYLNWYQQKPGKAPKLVIYAATSLASGVPSRFSGSGSGTDFTLTISSLQPEDFATYYCQQSYDLPLTFGGGTKVEIK = 0.349

Lab note: next binder to report on.
## Task # input binder: 376_A12 (antibody, V domains shown) VH: EVQLLESGGGLVQPGGSLRLSCAASGFTFSSYSMNWVRQAPGKGLEWVANINYNSGYKGYADSVKGRFTISRDNSKNTLYLQMNSLRAEDTAVYYCARSANWHDTALDYWGQGTLVTVSS VL: DIQMTQSPSSLSASVGDRVTITCRASQSILSYVNWYQQKPGKAPKLVIYAATSRASGVPSRFSGSGSGTDFTLTISSLQPEDFATYYCQQSYDTPLTFGGGTKVEIK ; wanted: its optical density
## Result 0.22
